growth inhibition values, listed per item
# TEST_PROTOCOL: NCI Yeast Anticancer Drug Screen. Data for the cln2 rad14 strain (AID 165);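 also: 0% = growth equal to vehicle treated cultures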
# SETUP_CONDITIONS: S. cerevisiae cln2 rad14 strain, at 50.0 µM, active compounds read high
About 79,000 compounds went through this panel and 15% of them were active in at least one assay; those are over-represented in the sample as a whole.
Write the answer as a number in %, unit excluded.

Examples with answers:
COC(=O)c1ccccc1N=NNc1cccc(SC)c1 | 86
O=C1C(=O)N(c2ccccc2)[C@@]2(c3ccccc3)C(=Nc3ccccc3)OC(c3ccccc3)=C12 | 32.9
C[C@H](CCC1=NC(C)(C)CO1)C1CCC2[C@@H]3C(O)C[C@@H]4CC(O)CC[C@]4(C)C3CC[C@@]21C (stereo not given in full) | 97.9
CC1(C)CC(=O)C(/C=N/c2nc(-c3ccc(Br)cc3)cs2)=C(O)C1 | 98.3

Field: next compound
**Query** May I ask what growth inhibition has been recorded for O=C1C=C(Br)C(=O)c2ccccc21 ?
**Result** 99.1
